Reported Phytotoxicity, Soybean values for a set of molecules
- Tested on: Soybean
- PROCEDURE DETAILS: Pre-emergence treatment, phytotoxicity to soybean
- Format: in vivo
- MEASUREMENT CONDITIONS: 500 g/ha, 4 weeks after spraying, scale 0 to 10 (0: no effects, 10: complete death)
- Procedure: A rectangular plastic pot having a surface area of 300 cm^2 was filled with sandy loam soil and mixed bed soil which were mixed at a ratio of 1:1, and then, barnyardrass (Echinochloa crusgalli), large crabgrass (Digitaria sanguinalis), blackgrass (Alopecurus myosuroides), and annual bluegrass (Poa annua), which are grass weeds, were seeded thereto. In a pot that was prepared as described above, seeds of corn, soybean, cotton, wheat, and rice were seeded. […]

INSERT INTO measurements (molecule, endpoint_result) VALUES
  ('CC1(COCc2c(F)cccc2F)CC(c2ccccc2C(F)(F)F)=NO1 (stereo not shown)', 2);

I'd like to know its Phytotoxicity, Soybean. The molecule in question is Cc1ccccc1C1=NOC(C)(COCc2c(F)cccc2Cl)C1 (stereo not shown) [Reference E]
0

I'd like to know its Phytotoxicity, Soybean. The molecule in question is CC1(COCc2c(F)cccc2F)CC(c2ccccc2F)=NO1 (stereo not shown)
0

I'd like to know its Phytotoxicity, Soybean. The molecule in question is CC1(COCc2ccccc2F)CC(c2ccccc2[N+](=O)[O-])=NO1 (stereo not shown) [Reference A]
0

I'd like to know its Phytotoxicity, Soybean. The molecule in question is Cc1cccc(C2=NOC(C)(COCc3c(F)cccc3F)C2)c1 (stereo not shown) [Reference F]
0

I'd like to know its Phytotoxicity, Soybean. The molecule in question is CC1(COCc2c(F)cccc2Cl)CC(c2ccccc2Cl)=NO1 (stereo not shown) [Reference B]
0

I'd like to know its Phytotoxicity, Soybean. The molecule in question is Cc1ccc(C2=NOC(C)(COCc3c(F)cccc3F)C2)cc1 (stereo not shown) [Reference G]
0

I'd like to know its Phytotoxicity, Soybean. The molecule in question is CC1(COCc2c(F)cccc2F)CC(c2ccccc2Cl)=NO1 (stereo not shown)
0

I'd like to know its Phytotoxicity, Soybean. The molecule in question is Cc1ccccc1C1=NOC(C)(COCc2ccccc2F)C1 (stereo not shown) [Reference D]
0

I'd like to know its Phytotoxicity, Soybean. The molecule in question is Cc1ccccc1C1=NOC(C)(COCc2ccccc2)C1 (stereo not shown) [Reference C]
1

Attribution: patent US9439432B2
